Target: Alpha-bungarotoxin (Bungarus multicinctus)
Assay: alpha-bungarotoxin binders on microarray, profiling panel, artefact control for SMM control protein annotation, biochemical, small-molecule microarray, Alexa647 label, 635/667 nm fluorescence (AID 1117)
Details: alpha-BTX-A647 binding fluorescence, higher = more signal
// values below are reported composite z-score
Give a plain numeric answer without units written out.

compound: O=C1C2C=CC(C(O)Cc3ccccc3)N(n3cnnc3)C2C(=O)N1Cc1ccccc1 (stereo not given)
composite z-score: 0.165

Would you mind telling me what composite z-score value was observed for [N-]=[N+]=NCc1ccccc1[C@@H]1OC(c2ccc(OCCCO)cc2)=N[C@]1(Cc1ccccc1)C(N)=O ?
2.14

Next: Cc1nc2cc(Br)ccc2c(=O)o1
0.206

Next: C=C(COC)/C(=C/C[C@@H](OC(C)=O)c1ccc(OCCO)cc1)c1cnc2ccccc2c1
1.63

Next: CC(C)C(=C=CC[C@H](O)c1ccc(OCCO)cc1)CCO
0.663
